Reported melting point values are given for each entry in this list.

Record excerpt, results attached:
>  <COMPOUND_STRING>
CN(C)CCCCN1CCOc2cc3ncc(C#N)c(Nc4ccc(F)c(Cl)c4)c3cc21

>  <melting point>
105 °C

$$$$
>  <COMPOUND_STRING>
CCN1CCN(CCCCN2CCOc3cc4c(Nc5ccc(Cl)cc5Cl)c(C#N)cnc4cc32)CC1

>  <melting point>
97 to 98 °C

$$$$
>  <COMPOUND_STRING>
CN(C)CCCC(=O)N1CCOc2cc3ncc(C#N)c(Nc4ccc(F)c(Cl)c4)c3cc21

>  <melting point>
165 °C

$$$$
>  <COMPOUND_STRING>
N#Cc1cnc2cc3c(cc2c1Nc1ccc(F)c(Cl)c1)N(CCCCCl)CCO3

>  <melting point>
78 to 79 °C

$$$$

Please report the measured melting point for N#Cc1cnc2cc3c(cc2c1Nc1ccc(F)c(Cl)c1)NCCO3
244 to 245 °C

Annotate the compound N#Cc1cnc2cc3c(cc2c1Nc1ccc(Cl)cc1Cl)OCCN3 with its measured melting point.
254 to 255 °C

====

# MEASURED_ON: EGF-R Kinase (recombinant enzyme) (Homo sapiens)
# Construct: containing the EGFR cDNA encoding amino acids 645-1186 preceded by Met-Ala-(Ris)6; made in house; host or cells: Sf9 insect cells, recombinant baculovirus vHcEGFR52
# Sequence (P00533 669-1210): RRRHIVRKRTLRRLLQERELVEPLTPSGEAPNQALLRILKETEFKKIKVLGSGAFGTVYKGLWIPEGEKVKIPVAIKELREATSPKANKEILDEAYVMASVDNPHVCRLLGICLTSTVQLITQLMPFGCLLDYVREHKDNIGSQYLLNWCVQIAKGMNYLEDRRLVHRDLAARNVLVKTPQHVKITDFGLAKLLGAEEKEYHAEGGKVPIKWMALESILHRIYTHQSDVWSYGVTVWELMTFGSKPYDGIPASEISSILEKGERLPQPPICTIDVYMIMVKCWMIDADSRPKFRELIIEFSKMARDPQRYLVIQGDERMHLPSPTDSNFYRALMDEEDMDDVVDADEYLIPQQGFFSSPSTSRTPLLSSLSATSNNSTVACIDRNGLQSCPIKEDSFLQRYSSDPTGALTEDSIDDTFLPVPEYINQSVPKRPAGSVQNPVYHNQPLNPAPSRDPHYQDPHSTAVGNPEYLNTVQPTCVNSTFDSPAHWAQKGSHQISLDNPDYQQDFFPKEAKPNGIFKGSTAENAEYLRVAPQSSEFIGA
# ASSAY_INFO: Inhibition of Epidermal Growth Factor Receptor Kinase (EGF-R) using recombinant enzyme
# Type: biochemical
# DETAILS: RR-SRC peptide substrate
MEASURED_PARAMETER: IC50 (nM)
Write down the numeric answer in nM and omit the unit.

>  <MOLECULE>
CN(C)CCCC(=O)N1CCOc2cc3ncc(C#N)c(Nc4ccc(F)c(Cl)c4)c3cc21 [Example 10]

>  <UNIT_TAG>
nM

>  <IC50>
200

$$$$

From here, focus on the item given below.
Give a short answer stating reported IC50 for CN(C)CCCCN1CCOc2cc3ncc(C#N)c(Nc4ccc(F)c(Cl)c4)c3cc21 [Example 12] .
5
